# SUBJECT_OF_TEST: T1, human CD71 extracellular domain (human, UniProt P02786 89-760)
# T1 construct: also called hCD71; human CD71-ECD
# TEST_PROTOCOL: primary ELISA; signal on hCD71 over signal on HSA
ENDPOINT_LABEL: hCD71:HSA (ratio)
Write it as a number; the unit ratio goes unstated.

Below, each entry is followed by its recorded hCD71:HSA result.
BINDER	VALUE_UNITS	RECORDED_RESULT
CD71-binding FN3 domain of SEQ ID NO: 108 (designed binder, Screen 1 hit, tested from colonies in the primary ELISA; not shown: C-terminal poly-histidine tag added to each FN3 domain) MLPAPKNLVVSRVTEDSARLSWTAPDAAFDSFYIAYAEPRPDGEAILLQVPGSERSYDLTGLKPGTEYSVLIHGVKGGLLSSPLVAKFTT	ratio	1140
CD71-binding FN3 domain of SEQ ID NO: 101 (designed binder, Screen 1 hit, tested from colonies in the primary ELISA; not shown: C-terminal poly-histidine tag added to each FN3 domain) MLPAPKNLVVSRVTEDSARLSWTAPDAAFDSFGIGYWERRWYGEAIVLTVPGSERSYDLTGLKPGTEYEVTIRGVKGGGYSGPLSAIFTT	ratio	78

Measured hCD71:HSA, CD71-binding FN3 domain of SEQ ID NO: 117 (designed binder, Screen 1 hit, tested from colonies in the primary ELISA; not shown: C-terminal poly-histidine tag added to each FN3 domain) MLPAPKNLVVSRVTEDSARLSWTAPDAAFDSFFIGYLEPQPPGEAIWLLVPGSERSYDLTGLKPGTEYNVTIQGVKGGFPSTPLSAIFTT : 1120

Measured hCD71:HSA, CD71-binding FN3 domain of SEQ ID NO: 107 (designed binder, Screen 1 hit, tested from colonies in the primary ELISA; not shown: C-terminal poly-histidine tag added to each FN3 domain) MLPAPKNLVVSRVTEDSARLSWTAPDAAFDSFFIGYLEPQPPGEAIGLQVPGSERSYDLTGLKPGTEYNVTIQGVKGGFPSMPLSAIFTT : 1860
